Recorded relative integration efficiency (log2), one value per entry.
# Tested on: VchCAST RNA-guided transposition machinery (E. coli BL21(DE3) host, lacZ target)
# test_summary: relative integration efficiency (T-RL orientation) vs wild-type transposon end (log2 (normalized fold change)); transposon end mutated: right end (5 bp flank + 75 bp right end); higher = more efficient transposition
Number, no unit, nothing else.

The cases that follow already have their relative integration efficiency (log2) on record.
query_sequence: ACATTTGTTGATACAACCATAAGTTGATATTTTCACCCATAAATTGATATTGCTCAGTGGGTATTTAACTATAACGCTCTGATCATAGTCAGACCAACATTGCTACGACCCGTATTCGCACCGACAC
relative integration efficiency (log2): -1.19

query_sequence: ACATTTGTTGATACACCCATAAATTGATAATTACAACCATAAAATGATAATTATCACAACCATATATTGATATCTCCTCTGATCATAGTCAGACCAACATTGCTACGACCCGTATTCGCACCGACAC
relative integration efficiency (log2): -0.596

query_sequence: ACATTTGTTGTAACAACCATAAAATGATAATTACACCCATAAATTGATAATTATCACACCCATAAATTGATATTGCCTCTGATCATAGTCAGACCAACATTGCTACGACCCGTATTCGCACCGACAC
relative integration efficiency (log2): -0.2

query_sequence: ACATTTGTTGATACAACCATAAAATGATAATTACTCTGATCATAGTCAGACCAACATTGCTACGACCCCACCCATAAATTGATAATTATCACACCCATAAATTGATATTGCGTATTCGCACCGACAC
relative integration efficiency (log2): -3.23

API: the following record is the query input.
QUERY: Fill in: relative integration efficiency (log2) of ACATTTGTTGATACAACCATAAAATCATAATTACACCCATCAATTGATAATTATCCCACCCCATTTAACTATAACGCTCTGATCATAGTCAGACCAACATTGCTACGACCCGTATTCGCACCGACAC is ___
RESULT: -4.29

====

# Test system: VchCAST RNA-guided transposition machinery (E. coli BL21(DE3) host, lacZ target)
# test_summary: relative integration efficiency (T-RL orientation) vs wild-type transposon end (log2 (normalized fold change)); transposon end mutated: right end (5 bp flank + 75 bp right end); higher = more efficient transposition
Use -2 as the dividing line for relative integration efficiency (log2), with the line itself on the Fulfilled side and lower values as Not fulfilled.

Worked examples, 8 sequences total:
query_sequence: ACATTTGTTCATACAACCATAAAATGATAATTACCACCCCTAAATTGATAATTATCACACCCATTTAACTATAACGCTCTGATCATAGTCAGACCAACATTGCTACGACCCGTATTCGCACCGACAC
class_name: Not fulfilled
--
query_sequence: ACATTTGTGGATACAACCATAAAATGATAATTACACCCATAAATTGATAATTATCACCCCCAATTTAACTATAACGCTCTGATCATAGTCAGACCAACATTGCTACGACCCGTATTCGCACCGACAC
class_name: Fulfilled
--
query_sequence: ACATTTGTTGATACAACCATAAAATGATAACACCCATAAATTGATAATTATCACACCCATAAATTGATATTGCCTCTGATCATAGTCAGACCAACATTGCTACGACCCGTATTCGCACCGACACTGA
class_name: Not fulfilled
--
query_sequence: ACATTTGTTGATACCACCATCAAATGGTAATTACACCCCTACATTGATAATTATCACACCCAATTTAACTATAACGCTCTGATCATAGTCAGACCAACATTGCTACGACCCGTATTCGCACCGACAC
class_name: Not fulfilled
--
query_sequence: ACATTTGTTGATACCACCATCAAATGGTAATTCCACCCCTACATTGATAATTATCACACCCAATTTAACTATAACGCTCTGATCATAGTCAGACCAACATTGCTACGACCCGTATTCGCACCGACAC
class_name: Not fulfilled
--
query_sequence: ACATTTGTTGATACAACACTAAAATGATAATTACACCCATAAATTGATAATTATCACACCCATAAATTGATATTGCCTCTGATCATAGTCAGACCAACATTGCTACGACCCGTATTCGCACCGACAC
class_name: Fulfilled
--
query_sequence: ACATTTGTTGATACAACCATAAAATGATAATTACACCCATAAATTTCGCATTATCACACCCATAAATTGATATTGCCTCTGATCATAGTCAGACCAACATTGCTACGACCCGTATTCGCACCGACAC
class_name: Fulfilled
--
query_sequence: ACATTTGTTGATACAACCATAAAATGATAATTACACCCTATTATTGATAATTATCACACCCATAAATTGATATTGCCTCTGATCATAGTCAGACCAACATTGCTACGACCCGTATTCGCACCGACAC
class_name: Fulfilled

Query sequence follows.
QUERY: # bool: relative integration efficiency (log2) of ACATTTGTTGATACAACCATAAAATGATAATTACTCTGATCATAGTCAGACCAACATTGCTACGACCCGTATTCACCCATAAATTGATAATTATCAGTGGGTATTTAACTATAACGCGCACCGACAC >= -2
RESULT: Not fulfilled

====

# System: VchCAST RNA-guided transposition machinery (E. coli BL21(DE3) host, lacZ target)
# test_summary: relative integration efficiency (T-LR orientation) vs wild-type transposon end (log2 (normalized fold change)); transposon end mutated: left end; higher = more efficient transposition
value_kind: relative integration efficiency (log2)
Number, no unit, nothing else.

The cases that follow already have their relative integration efficiency (log2) on record.
query_sequence: AATGTTGTTGATGCAACCATAAAGTGATATTTAATAATTATTTATAATCAGCAACTTAACCACAAAACAACCATATATTGATATCTCACAACCATAAGTTGATATTTTTGTGAATCGAGTATTTCAGCAAAACTACTGCAGTAAGAAAGTTA
value_kind: relative integration efficiency (log2)
data_value: -1.81
//
query_sequence: AATGTTGTTGATGCAACCATAAAGTGATATTTACAACCATATATTGATATCTCTCACAACCATAAGTTGATATTTTTGTGAATCGAGTATTTCAGCAAAACTACTGCAGTAAGAAAGTTACTTCGTGGTATGGGAGGATCAAGGAGCCAATA
value_kind: relative integration efficiency (log2)
data_value: 3.04
//
query_sequence: AATGTTGTTGATGCAACCATAAAGTGATATTTAATAATTATTTATAATCAGCAACTTAACCACAAACAACCATATATTGATATCTCACAAAACAACCATAAGTTGATATTTTATGTGAATCGAGTATTTCAGCAAAACTACTGCAGTAAGAA
value_kind: relative integration efficiency (log2)
data_value: -1.02
//
query_sequence: AATGTTGTTGATGCAACCATAAAGTGATATTTAATAATTATTTATAATCAGCAACTTAACCACAAAACAACCATATATTGATATCTCACAAAACAACCATCCTGGTCGCGGGGGTGTCCGATCTGATTTCAGCAAAACTACTGCAGTAAGAA
value_kind: relative integration efficiency (log2)
data_value: -0.61

QUERY: Fill in: relative integration efficiency (log2) of AATGTTGTTGATGCAACCATAAAGTGATATTTAATAACTTGGTATAGCATACATTATACGAACGGTACAACCATATATTGATATCTCACAAAACAACCATAAGTTGATATTTTTGTGAATCGAGTATTTCAGCAAAACTACTGCAGTAAGAA is ___
RESULT: -4.2

QUERY: Next sequence up: AATGTTGTTGATGCAACCATAAAATGATAATTAATAATTATTTATAATCAGCAACTTAACCACAAAACAACCATAAAATGATAATTAACAAAAGTTGGTATTCAACTATAAAATGTGAATCGAGTATTTCAGCAAAACTACTGCAGTAAGAA
RESULT: -1.23

QUERY: Next sequence up: AATGTTGTTGATGCAACCATAAAGTGATATTTAATAATTATTTATAATCAGCACAGGCCAACACCCCACCAACGCGCGGTCGCGAGACACCCCACCAACGCCTGGTCGCGGGGGTGTCCGATCTGATTTCAGCAAAACTACTGCAGTAAGAA
RESULT: -3.58

QUERY: Next sequence up: AATGTTGTTGATGCAACCATAAAGTGATATTTAATAATTATTTATAATCAGCAACTTAACCACAAAACAACCATATATTGATATCTCACAAAACAACCATAAGTTGATATTTGTGAATCGAGTATTTCAGCAAAACTACTGCAGTAAGAAAG
RESULT: 0.0663

====

# Tested on: VchCAST RNA-guided transposition machinery (E. coli BL21(DE3) host, lacZ target)
# test_summary: relative integration efficiency (T-RL orientation) vs wild-type transposon end (log2 (normalized fold change)); transposon end mutated: right end (5 bp flank + 75 bp right end); higher = more efficient transposition
Recorded relative integration efficiency (log2), one value per entry.

query_sequence: ACATTTGTTGATACAACCATAAAATGATAATTACACCCAATAATTGATAATTATCACACCCATAAATTGATATTGCCTCTGATCATAGTCAGACCAACATTGCTACGACCCGTATTCGCACCGACAC
value_kind: relative integration efficiency (log2)
data_value: -0.277
--
query_sequence: ACATTTGTTGATACAACCATAAAAGGATCATTACCCCCATCAATTGATAATTATCCCACCCCATTTAACTATAACGCTCTGATCATAGTCAGACCAACATTGCTACGACCCGTATTCGCACCGACAC
value_kind: relative integration efficiency (log2)
data_value: -4.43
--
query_sequence: ACATTTGTTGATACAACCATAAAATGATAATTACACCCATAAATTGATAATTATCACACCCATAAATTGATATTGGGAGTGATCATAGTCAGACCAACATTGCTACGACCCGTATTCGCACCGACAC
value_kind: relative integration efficiency (log2)
data_value: -0.111

QUERY: Fill in: relative integration efficiency (log2) of ACATTTGTTCATCCAACCATAAAATGATAATTACACCCATAAATTGATCATTATCACACCCAATTTAACTATAACGCTCTGATCATAGTCAGACCAACATTGCTACGACCCGTATTCGCACCGACAC is ___
RESULT: -2.44

QUERY: Next sequence up: ACATTTGTTGATACAACCATAAAATGATAATTACACCCATAAATTGATAATTATCACACCCATAAATTGATATTGCGACTGATCATAGTCAGACCAACATTGCTACGACCCGTATTCGCACCGACAC
RESULT: -0.0819
